Quick reference: fold induction at 0.1 µM of the listed items.
Tested on: Mgat3 transcription
Protocol notes: qPCR of Mgat3 transcription in PBMC's from AD patients cultured with Aβ and test agent
Assay type: cell-based, human
Conditions: Homo sapiens; curcumins 0.1 uM, PBMC's from AD patients cultured overnight with Aβ, 2 hours incubation, qPCR; read-out: Relative Activity: relative ratio of Mgat3 transcription in AD/Mgat3 transcription in control cells

Substance smiles: COc1cc(C=CC(=O)C=C(O)C=Cc2ccc(O)c(OC)c2)ccc1O
fold induction at 0.1 µM: 1 to 1.5
//
Substance smiles: COc1cc(O)ccc1C=CC(=O)C=C(O)C=Cc1ccc(O)cc1OC
fold induction at 0.1 µM: 1.5 to 2
//
Substance smiles: O=C(C=Cc1cccc(O)c1)C=C(O)C=Cc1cccc(O)c1
fold induction at 0.1 µM: 1 to 1.5
//
Substance smiles: COc1ccc(C=CC(=O)C=C(O)C=Cc2ccc(OC)c(O)c2)cc1O
fold induction at 0.1 µM: 1 to 1.5
//
Substance smiles: O=C(C=Cc1ccc(O)cc1)C=C(O)C=Cc1ccc(O)cc1
fold induction at 0.1 µM: 1.5 to 2

Observed fold induction at 0.1 µM, Mgat3 transcription, O=C(/C=C(O)/C=C/c1ccccc1)/C=C/c1ccccc1 : 1 to 1.5

Observed fold induction at 0.1 µM, Mgat3 transcription, CC(C)(C)c1ccc(/C=C/C(=O)/C=C(O)/C=C/c2ccc(C(C)(C)C)cc2)cc1 : 1 to 1.5

Observed fold induction at 0.1 µM, Mgat3 transcription, CN(C)c1ccc(C=CC(=O)C=C(O)C=Cc2ccc(N(C)C)cc2)cc1 : ≥ 2

Observed fold induction at 0.1 µM, Mgat3 transcription, COc1ccccc1C=CC(=O)C=C(O)C=Cc1ccccc1OC : ≥ 2

Taken from patent US20090263492A1.
